Molecular target: T1, GPR10 (human, UniProt P49683 1-370)
T1 construct: prolactin-releasing peptide receptor GPR10, human; also called hGR3; GPR10 receptor; source: CHO-K1 cells stably expressing the receptor, bought: Thermo Fisher Scientific; on cells
T1 sequence (looked up): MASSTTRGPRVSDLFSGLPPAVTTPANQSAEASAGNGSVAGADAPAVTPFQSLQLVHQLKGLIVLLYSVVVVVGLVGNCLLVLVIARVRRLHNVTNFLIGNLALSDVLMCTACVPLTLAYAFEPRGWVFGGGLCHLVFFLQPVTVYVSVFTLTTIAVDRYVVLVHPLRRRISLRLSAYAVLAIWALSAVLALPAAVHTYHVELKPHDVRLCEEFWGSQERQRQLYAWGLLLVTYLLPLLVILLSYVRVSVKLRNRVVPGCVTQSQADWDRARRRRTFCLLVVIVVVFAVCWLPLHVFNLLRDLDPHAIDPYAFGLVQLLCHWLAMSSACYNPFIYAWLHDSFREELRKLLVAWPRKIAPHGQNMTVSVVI
Test: radioligand binding; competition with [^125I]-PrRP31 on CHO-K1 cells expressing human GPR10; Ki by the Cheng-Prusoff equation
Conditions: one partner purified
Starred links: 1 amine or outer side, 2 acyl side, 3 side chain; linkers in the order of their positions; H or OH if unused. Groups on a side chain read outwards from the residue. No end group written: not given here. *: point of attachment. γGlu = O=C(O)[C@H](CCC(=O)[*:2])N[*:1]; Palmitoyl = CCCCCCCCCCCCCCCC(=O)*
recorded.endpoint: Ki (nM)
Answers are plain numbers, in nM.

Request: Returns the measured Ki for the input binder. Input: SRTHRHSMEIK([γGlu-Palmitoyl])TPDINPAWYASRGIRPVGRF-NH2 (analog of human PrRP31 with Arg11 replaced by Lys11 that carries palmitic acid through a gamma-Glu linker; numbers count on: the peptide PrRP31; source: synthetic peptide, palmitoylated on resin, purified (HPLC, purity greater than 95%)) [Palm^11-PrRP31]
Result: 3.44
